METHOD_DESCRIPTION: In vitro plasma stability, human plasma
STATED_CONDITIONS: 2 μM, 37 °C, time point 120 min
READOUT_KIND: Plasma stability % Remaining, Human (%)
Write the value in % as a bare number.

Data request: Suppose we examine the molecule `CC=CC(=O)OCC1=C(C(=O)O)N2C(=O)[C@@H](NC(=O)C(=NO)c3cccs3)[C@H]2SC1` ; what Plasma stability % Remaining, Human value has been reported?
Data returned: 35.0

Data request: Suppose we examine the molecule O=C(O)C1=C(CSc2cccc[n+]2[O-])CS[C@@H]2[C@H](NC(=O)C(F)c3ccccc3)C(=O)N12 (stereo partly drawn) ; what Plasma stability % Remaining, Human value has been reported?
Data returned: 81.0

Data request: Suppose we examine the molecule `Cn1c(SCC2=C(C(=O)O)N3C(=O)[C@@H](NC(=O)Cc4ccccc4CN)[C@H]3SC2)nnc(O)c1=O` ; what Plasma stability % Remaining, Human value has been reported?
Data returned: 90.4
